For each record, write down the corresponding IC50.
Tested on: H9
Assay: Inhibition of uninfected H9 lymphocytic cell growth
Type: functional, cell-based
Settings: Homo sapiens
Answers are plain numbers, in µg/mL.

Example cases with answers are listed next.
[
  {
    "compound": "O=C(O[C@H](Cc1c(O)cc(O)cc1O)[C@@H](c1cc(O)c(O)c(O)c1)c1c(O)cc(O)c2c1O[C@H](c1cc(O)c(O)c(O)c1)[C@H](OC(=O)c1cc(O)c(O)c(O)c1)C2)c1cc(O)c(O)c(O)c1",
    "quantity_kind": "IC50",
    "result": 8
  },
  {
    "compound": "Oc1cc(O)c2c(c1)O[C@H](c1cc(O)c(O)c(O)c1)[C@H](O)C2 [EPIGALLOCATECHIN]",
    "quantity_kind": "IC50",
    "result": 1.8
  }
]

Batch of 8 compounds: report IC50 for each.
1. O=C(O[C@@H]1Cc2c(O)cc(O)c([C@@H]3c4c(O)cc(O)cc4O[C@H](c4cc(O)c(O)c(O)c4)[C@H]3O)c2O[C@@H]1c1cc(O)c(O)c(O)c1)c1cc(O)c(O)c(O)c1
2. O=C(O[C@@H]1Cc2c(O)cc(O)cc2O[C@@H]1c1cc(O)c(=O)c2c(O)c(O)cc([C@H]3Oc4cc(O)cc(O)c4C[C@H]3OC(=O)c3cc(O)c(O)c(O)c3)c2c1)c1cc(O)c(O)c(O)c1 [THEAFLAVIN DIGALLATE]
3. Oc1cc(O)c2c(c1)OC(c1cc(O)c(O)c(O)c1-c1c(C3Oc4cc(O)cc(O)c4C[C@H]3O)cc(O)c(O)c1O)[C@H](O)C2 (single isomer, unassigned)
4. O=C(O[C@@H]1Cc2c(O)cc(O)c([C@H]3c4c(O)cc(O)cc4O[C@H](c4cc(O)c(O)c(O)c4)[C@@H]3O)c2O[C@@H]1c1cc(O)c(O)c(O)c1)c1cc(O)c(O)c(O)c1
5. COc1cc(C(=O)O[C@@H]2Cc3c(O)cc(O)cc3O[C@@H]2c2ccc(O)c(O)c2)cc(O)c1O
6. O=C(Oc1cc(O)cc2c1C[C@@H](OC(=O)c1cc(O)c(O)c(O)c1)[C@@H](c1cc(O)c(O)c(O)c1)O2)c1cc(O)c(O)c(O)c1 [EPIGALLOCATECHIN 3,5-DIGALLATE]
7. O=C(O[C@H](Cc1c(O)cc(O)cc1O)[C@H](c1cc(O)c(O)c(O)c1)c1c(O)cc(O)c2c1O[C@H](c1cc(O)c(O)c(O)c1)[C@H](OC(=O)c1cc(O)c(O)c(O)c1)C2)c1cc(O)c(O)c(O)c1
8. O=c1c(O)cc([C@H]2Oc3cc(O)cc(O)c3C[C@H]2O)cc2c([C@H]3Oc4cc(O)cc(O)c4C[C@H]3O)cc(O)c(O)c12

Output:
1: 9; 2: 48; 3: 20; 4: 28; 5: 50; 6: 20; 7: 9; 8: 48

Task: Input O=C(Oc1c(O)cc([C@H]2Oc3cc(O)cc(O)c3C[C@H]2OC(=O)c2cc(O)c(O)c(O)c2)cc1O)c1cc(O)c(O)c(O)c1 , output reported IC50.
Output: 40

----------
Test system: H9
Assay: Inhibition of uninfected H9 lymphocytic cell growth
Format: functional, cell-based
Conditions: Homo sapiens
quantity_kind: IC50 (µg/mL)
Numbers only, in µg/mL.

Below: 2 molecules and their reported IC50.
[
  {
    "molecule": "O=C(O[C@@H]1Cc2c(O)cc(O)cc2O[C@@H]1c1cc(O)c(O)c(O)c1-c1c([C@H]2Oc3cc(O)cc(O)c3C[C@H]2O)cc(O)c(O)c1O)c1cc(O)c(O)c(O)c1 [2',2'-BISEPIGALLOCATECHIN MONOGALLATE]",
    "result": 9.5
  },
  {
    "molecule": "COc1c(O)cc(C(=O)O[C@@H]2Cc3c(O)cc(O)cc3O[C@@H]2c2ccc(O)c(O)c2)cc1O",
    "result": 50
  }
]

Now let's try a different one.
Task: Provide IC50, recorded with H9, of O=C(O[C@@H]1Cc2c(O)cc(O)cc2O[C@@H]1c1cc(O)c(O)c2c(=O)c(O)cc([C@H]3Oc4cc(O)cc(O)c4C[C@H]3O)cc12)c1cc(O)c(O)c(O)c1
Output: 48

----------
Assignment: determine reported selectivity ratio for the given molecules.
Assay: Therapeutic index - IC50/EC50.
Details: read-out: Therapeutic index
One number for each entry.

Example entries and their recorded answers appear below.
[
  {
    "molecule": "O=C1c2c(O)cc(O)cc2O[C@H](c2ccc(O)c(O)c2)[C@H]1O [(+)-TAXIFOLIN]",
    "result": 1
  },
  {
    "molecule": "O=C1O[C@H]([C@@H](O)CO)C2(O)Oc3cc(O)c4c(c3C12O)O[C@H](c1cc(O)c(O)c(O)c1)[C@H](O)C4 (some centres not stated)",
    "result": 9.5
  },
  {
    "molecule": "O=C(O[C@@H]1Cc2c(cc(O)c(Cc3c(O)cc4c(c3O)C[C@@H](OC(=O)c3cc(O)c(O)c(O)c3)[C@@H](c3cc(O)c(O)c(O)c3)O4)c2O)O[C@@H]1c1cc(O)c(O)c(O)c1)c1cc(O)c(O)c(O)c1",
    "result": 3.9
  },
  {
    "molecule": "O=C(O[C@@H]1Cc2c(O)cc(O)c([C@H]3c4c(O)cc(O)cc4O[C@H](c4cc(O)c(O)c(O)c4)[C@@H]3O)c2O[C@@H]1c1cc(O)c(O)c(O)c1)c1cc(O)c(O)c(O)c1",
    "result": 1.9
  },
  {
    "molecule": "O=C(O[C@@H]1Cc2c(O)cc(O)cc2O[C@@H]1c1cc(O)c(O)c(O)c1)c1cc(O)c(O)c(O)c1 [EPIGALOCATECHIN GALLATE]",
    "result": 1.1
  },
  {
    "molecule": "Oc1cc(O)c2c(c1)O[C@H](c1cc(O)c(O)c(O)c1)[C@H](O)[C@H]2c1c(O)cc(O)c2c1O[C@H](c1cc(O)c(O)c(O)c1)[C@H](O)C2",
    "result": 1.2
  },
  {
    "molecule": "Oc1cc(O)c2c(c1)OC(c1cc(O)c(O)c(O)c1-c1c(C3Oc4cc(O)cc(O)c4C[C@H]3O)cc(O)c(O)c1O)[C@H](O)C2 (single isomer, unassigned)",
    "result": 2
  },
  {
    "molecule": "O=C(O[C@@H]1Cc2c(O)cc(O)cc2O[C@@H]1c1cc(O)c(O)c2c1C1C([C@H]3Oc4cc(O)cc(O)c4C[C@H]3O)=CC(=O)C1(O)O2)c1cc(O)c(O)c(O)c1 (some centres not stated)",
    "result": 1.9
  }
]

Go through the list and state selectivity ratio for each entry.
1. O=C(Oc1cc(O)cc2c1C[C@@H](OC(=O)c1cc(O)c(O)c(O)c1)[C@@H](c1cc(O)c(O)c(O)c1)O2)c1cc(O)c(O)c(O)c1 [EPIGALLOCATECHIN 3,5-DIGALLATE]
2. O=C(Oc1cc([C@H]2Oc3cc(O)cc(O)c3C[C@H]2OC(=O)c2cc(O)c(O)c(O)c2)cc(O)c1O)c1cc(O)c(O)c(O)c1
3. O=C(O[C@@H]1Cc2c(O)cc(O)cc2O[C@@H]1c1cc(O)c(O)c(O)c1-c1c([C@H]2Oc3cc(O)cc(O)c3C[C@H]2OC(=O)c2cc(O)c(O)c(O)c2)cc(O)c(O)c1O)c1cc(O)c(O)c(O)c1 [THEASINENSIN A]
4. Oc1cc(O)c2c(c1)O[C@H](c1cc(O)c(O)c(O)c1)[C@@H](O)[C@@H]2c1c(O)cc(O)c2c1O[C@H](c1cc(O)c(O)c(O)c1)[C@H](O)C2
5. O=C(O[C@@H]1[C@@H](c2c(O)cc3c(c2O)C[C@@H](OC(=O)c2cc(O)c(O)c(O)c2)[C@@H](c2cc(O)c(O)c(O)c2)O3)c2c(O)cc(O)cc2O[C@@H]1c1cc(O)c(O)c(O)c1)c1cc(O)c(O)c(O)c1
6. Oc1cc(O)c2c(c1)O[C@H](c1cc(O)c(O)c(O)c1-c1c([C@H]3Oc4cc(O)cc(O)c4C[C@H]3O)cc(O)c(O)c1O)[C@H](O)C2

Output:
1: 3.6; 2: 6.2; 3: 0.95; 4: 1.5; 5: 2; 6: 1.6

Give me selectivity ratio for each of these molecules, listed below.
1. O=C(O[C@@H]1Cc2c(O)cc(O)cc2OC1c1cc(O)c(O)c(O)c1-c1c(C2Oc3cc(O)cc(O)c3C[C@H]2OC(=O)c2cc(O)c(O)c(O)c2)cc(O)c(O)c1O)c1cc(O)c(O)c(O)c1 (single isomer, unassigned)
2. Oc1ccc([C@H]2Oc3cc(O)cc(O)c3C[C@H]2O)cc1 [EPIAFZELECHIN (2R,3R)(-)]
3. O=C(Oc1c(O)cc([C@H]2Oc3cc(O)cc(O)c3C[C@H]2OC(=O)c2cc(O)c(O)c(O)c2)cc1O)c1cc(O)c(O)c(O)c1
4. O=C(O[C@H](Cc1c(O)cc(O)cc1O)[C@@H](c1cc(O)c(O)c(O)c1)c1c(O)cc2c(c1O)C[C@@H](OC(=O)c1cc(O)c(O)c(O)c1)[C@@H](c1cc(O)c(O)c(O)c1)O2)c1cc(O)c(O)c(O)c1
5. O=C(O[C@@H]1Cc2c(cc(O)c(Cc3c(O)cc(O)c4c3O[C@H](c3cc(O)c(O)c(O)c3)[C@H](OC(=O)c3cc(O)c(O)c(O)c3)C4)c2O)O[C@@H]1c1cc(O)c(O)c(O)c1)c1cc(O)c(O)c(O)c1
6. O=C(O[C@@H]1Cc2c(O)cc(O)cc2O[C@@H]1c1cc(O)c(=O)c2c(O)c(O)c(O)cc2c1)c1cc(O)c(O)c(O)c1
7. O=C(/C=C/c1ccc(O)cc1)O[C@@H]1Cc2c(O)cc(O)cc2O[C@@H]1c1cc(O)c(O)c(O)c1

Output:
1. 5
2. 1.4
3. 6.2
4. 2.5
5. 1.6
6. 4.5
7. 4.4

Task: Fill in selectivity ratio for record O=C(O[C@@H]1Cc2c(O)cc3c(c2O[C@@H]1c1cc(O)c(O)c(O)c1)C1(O)C(=O)O[C@H]([C@@H](O)CO)C1(O)O3)c1cc(O)c(O)c(O)c1 (some centres not stated)
Output: 4
